measured_target: plasma purified human complement protein C3 (human) (UniProt P01024)
Sequence (P01024 23-667, chain 1 of 2): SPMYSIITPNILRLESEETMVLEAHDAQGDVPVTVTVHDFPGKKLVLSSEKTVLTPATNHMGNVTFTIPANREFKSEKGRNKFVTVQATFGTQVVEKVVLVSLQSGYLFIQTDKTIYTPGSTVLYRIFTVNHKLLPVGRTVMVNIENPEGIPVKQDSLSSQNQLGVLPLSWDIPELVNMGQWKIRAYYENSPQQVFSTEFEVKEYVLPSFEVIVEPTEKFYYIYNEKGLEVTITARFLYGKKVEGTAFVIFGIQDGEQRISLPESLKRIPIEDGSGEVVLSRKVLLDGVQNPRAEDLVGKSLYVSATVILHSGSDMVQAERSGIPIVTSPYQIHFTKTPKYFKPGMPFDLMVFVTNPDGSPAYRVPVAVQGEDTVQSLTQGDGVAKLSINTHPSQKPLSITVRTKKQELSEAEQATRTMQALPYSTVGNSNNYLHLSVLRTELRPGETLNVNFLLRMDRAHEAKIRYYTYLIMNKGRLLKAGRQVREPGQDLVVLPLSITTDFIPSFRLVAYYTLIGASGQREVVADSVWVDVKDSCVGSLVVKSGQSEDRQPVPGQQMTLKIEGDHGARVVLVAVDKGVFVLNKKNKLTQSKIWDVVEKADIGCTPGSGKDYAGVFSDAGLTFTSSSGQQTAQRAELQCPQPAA
Sequence (P01024 672-1663, chain 2 of 2): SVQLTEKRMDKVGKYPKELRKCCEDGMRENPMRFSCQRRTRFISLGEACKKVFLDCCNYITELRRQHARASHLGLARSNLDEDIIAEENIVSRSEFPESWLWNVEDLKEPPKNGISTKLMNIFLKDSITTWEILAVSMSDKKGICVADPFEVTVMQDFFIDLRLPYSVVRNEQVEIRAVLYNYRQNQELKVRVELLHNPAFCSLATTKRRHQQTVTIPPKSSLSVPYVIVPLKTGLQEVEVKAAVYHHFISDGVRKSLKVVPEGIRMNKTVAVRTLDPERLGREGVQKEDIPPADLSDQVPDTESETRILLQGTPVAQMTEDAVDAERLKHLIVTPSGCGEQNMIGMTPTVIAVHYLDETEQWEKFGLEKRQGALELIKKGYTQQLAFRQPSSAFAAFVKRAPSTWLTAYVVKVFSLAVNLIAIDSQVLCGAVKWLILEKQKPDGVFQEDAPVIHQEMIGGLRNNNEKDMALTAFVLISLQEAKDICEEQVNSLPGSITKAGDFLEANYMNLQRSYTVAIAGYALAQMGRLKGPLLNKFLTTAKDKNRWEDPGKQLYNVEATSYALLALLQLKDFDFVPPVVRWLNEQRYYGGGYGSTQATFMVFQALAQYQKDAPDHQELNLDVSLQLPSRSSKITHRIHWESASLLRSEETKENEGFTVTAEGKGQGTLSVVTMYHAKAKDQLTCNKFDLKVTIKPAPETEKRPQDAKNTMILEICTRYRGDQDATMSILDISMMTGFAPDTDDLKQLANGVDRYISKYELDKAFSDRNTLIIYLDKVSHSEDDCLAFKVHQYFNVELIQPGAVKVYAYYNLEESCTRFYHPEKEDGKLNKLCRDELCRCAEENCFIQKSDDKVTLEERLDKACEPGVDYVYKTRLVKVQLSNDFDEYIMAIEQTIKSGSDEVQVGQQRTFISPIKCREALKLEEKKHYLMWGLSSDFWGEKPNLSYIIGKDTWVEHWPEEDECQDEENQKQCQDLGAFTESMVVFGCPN
assay_procedure: cell-based or functional assay
assay_metric: EC50 hC3 cleavage (nM)
Give the quantity in nM, number only.

These solved cases illustrate the format of a correct answer.
binder	assay_metric	measured_number
MTSP-1 protease domain F97E/F99L/C122S/Q175H/Q192V/D217P (enzyme) VVGGTDADEGEWPWQVSLHALGQGHICGASLISPNWLVSAAHCYIDDRGFRYSDPTQWTAFLGLHDQSQRSAPGVQERRLKRIISHPFFNDETLDYDIALLELEKPAEYSSMVRPISLPDASHVFPAGKAIWVTGWGHTQYGGTGALILQKGEIRVINQTTCENLLPQHITPRMMCVGFLSGGVDSCVGDSGGPLSSVEADGRIFQAGVVSWGPGCAQRNKPGVYTRLPLFRDWIKENTGV	EC50 hC3 cleavage	7770
MTSP-1 protease domain Q38H/I41S/D96V/ins97aA/C122S/G151N/Q192A (enzyme) VVGGTDADEGEWPWQVSLHALGHGHSCGASLISPNWLVSAAHCYIDDRGFRYSDPTQWTAFLGLHDQSQRSAPGVQERRLKRIISHPFFNVFATFDYDIALLELEKPAEYSSMVRPISLPDASHVFPAGKAIWVTGWGHTQYGGTNALILQKGEIRVINQTTCENLLPQQITPRMMCVGFLSGGVDSCAGDSGGPLSSVEADGRIFQAGVVSWGDGCAQRNKPGVYTRLPLFRDWIKENTGV	EC50 hC3 cleavage	16

Let us examine a further case.
## Input Give the measured EC50 hC3 cleavage of MTSP-1 protease domain I41E/F97R/F99L/C122S/G151Q/Q175G/Q192T/D217V (enzyme) VVGGTDADEGEWPWQVSLHALGQGHECGASLISPNWLVSAAHCYIDDRGFRYSDPTQWTAFLGLHDQSQRSAPGVQERRLKRIISHPFFNDRTLDYDIALLELEKPAEYSSMVRPISLPDASHVFPAGKAIWVTGWGHTQYGGTQALILQKGEIRVINQTTCENLLPQGITPRMMCVGFLSGGVDSCTGDSGGPLSSVEADGRIFQAGVVSWGVGCAQRNKPGVYTRLPLFRDWIKENTGV .
## Output 13
